# experimental target: FGFR1 kinase (Homo sapiens)
# Construct: purchased Upstate, USA
# experiment: TR-FRET assay with FGFR1 kinase
# Format: biochemical
# cond: compound at 1000 nM, 13 μM ATP
Inhibition (%) of FGFR1 at 1000 nM: recorded values
measurement name: Inhibition (%) of FGFR1 at 1000 nM

{"columns": ["compound", "experimental target", "value units", "reported result"],
 "data": [
  ["CCS(=O)(=O)Nc1cc(-c2ccccc2F)cc(-n2cnc3cc(-c4cnn(C)c4)ccc32)n1 [Example 11 (imido)]", "FGFR1 kinase (Homo sapiens)", "%", 98],
  ["Cn1cc(-c2ccc3c(c2)ncn3-c2cc(-c3ccc(F)cc3F)cc(NS(=O)(=O)C3CC3)n2)cn1 [Example 2 (imido)]", "FGFR1 kinase (Homo sapiens)", "%", 97],
  ["CC(C)S(=O)(=O)Nc1cc(-c2ccccc2F)cc(-n2cnc3cc(-c4cnn(C)c4)ccc32)n1 [Example 12 (imido)]", "FGFR1 kinase (Homo sapiens)", "%", 99],
  ["Cn1cc(-c2ccc3c(c2)ncn3-c2cc(-c3ncccc3F)cc(NS(=O)(=O)C3CC3)n2)cn1 [Example 18]", "FGFR1 kinase (Homo sapiens)", "%", 97],
  ["Cn1cc(-c2ccc3c(c2)ncn3-c2cc(-c3ccccc3F)cc(NS(=O)(=O)C3CC3)n2)cn1 [Example 8 (imido)]", "FGFR1 kinase (Homo sapiens)", "%", 97],
  ["CC(C)S(=O)(=O)Nc1cc(-c2ccc(F)cc2)cc(-n2cnc3cc(-c4cnn(C)c4)ccc32)n1 [Example 17 (imido)]", "FGFR1 kinase (Homo sapiens)", "%", 97],
  ["CC(C)S(=O)(=O)Nc1cc(-c2ccc(F)cc2F)cc(-n2cnc3cc(-c4cnn(C)c4)ccc32)n1 [Example 6 (imido)]", "FGFR1 kinase (Homo sapiens)", "%", 98],
  ["CCS(=O)(=O)Nc1cc(-c2ccc(F)cc2F)cc(-n2cnc3cc(-c4cnn(C)c4)ccc32)n1 [Example 5 (imido)]", "FGFR1 kinase (Homo sapiens)", "%", 98]
]}

====

# experimental target: FGFR1 kinase (Homo sapiens)
pIC50: −log10 of the molar value.
Response key: Fulfilled means pIC50 >= 8; Not fulfilled means pIC50 < 8.

{"columns": ["compound", "assigned category"],
 "data": [
  ["Cn1cc(-c2ccc3c(c2)ncn3-c2cc(-c3ccc(F)cc3OC(F)F)cc(NS(=O)(=O)C3CC3)n2)cn1", "Not fulfilled"],
  ["CC(C)S(=O)(=O)Nc1cc(-c2ccc(F)cc2F)cc(-n2cnc3cc(-c4cnn(C)c4)ccc32)n1", "Fulfilled"],
  ["CC(C)S(=O)(=O)Nc1cc(-c2ccccc2F)cc(-n2cnc3cc(-c4cnn(C)c4)ccc32)n1 [Example 12 (imido)]", "Fulfilled"],
  ["CCS(=O)(=O)Nc1cc(-c2ccccc2F)cc(-n2cnc3cc(-c4cnn(C)c4)ccc32)n1", "Fulfilled"],
  ["CCOC(=O)c1cn(-c2ccc3c(c2)ncn3-c2cc(-c3ccc(F)cc3F)cc(NS(=O)(=O)C3CC3)n2)nn1", "Not fulfilled"]
]}

====

# experimental target: FGFR1 kinase (Homo sapiens)
# Construct: purchased Upstate, USA
# experiment: TR-FRET assay with FGFR1 kinase
# Type: biochemical
# cond: compound at 1000 nM, 13 μM ATP
measurement name: inhibition at 1 µM (%)

{"columns": ["molecule", "reported result"],
 "data": [
  ["Cn1cc(-c2ccc3c(c2)ncn3-c2cc(-c3ccc(F)cc3F)nc(NS(=O)(=O)C3CC3)n2)cn1 [Example 41]", 93],
  ["Cn1cc(-c2ccc3c(c2)ncn3-c2cc(-c3ccc(F)cc3)cc(NS(C)(=O)=O)n2)cn1 [Example 16]", 97],
  ["Cn1cc(-c2ccc3c(c2)ncn3-c2cc(-c3ccc(F)cc3F)cc(Nc3ccn(C)n3)n2)cn1 [Example 1]", 97],
  ["Cn1cc(-c2ccc3c(c2)ncn3-c2cc(-c3ccccc3F)cc(NS(C)(=O)=O)n2)cn1 [Example 10]", 97],
  ["CCOC(=O)c1cn(-c2ccc3c(c2)ncn3-c2cc(-c3ccc(F)cc3F)cc(NS(=O)(=O)C3CC3)n2)nn1 [Example 39]", 81],
  ["CC(C)S(=O)(=O)Nc1cc(-c2ccc(F)cc2F)cc(-n2cnc3cc(-c4cnn(C)c4)ccc32)n1 [Example 6]", 99],
  ["Cn1cc(-c2ccc3c(c2)ncn3-c2cc(-c3ccc(F)cc3F)cc(NS(=O)(=O)C3CC3)n2)nn1 [Example 36]", 99]
]}

====

# experimental target: FGFR1 kinase (Homo sapiens, UniProt P11362)
# Construct: purchased Upstate, USA
# Sequence (P11362 22-822): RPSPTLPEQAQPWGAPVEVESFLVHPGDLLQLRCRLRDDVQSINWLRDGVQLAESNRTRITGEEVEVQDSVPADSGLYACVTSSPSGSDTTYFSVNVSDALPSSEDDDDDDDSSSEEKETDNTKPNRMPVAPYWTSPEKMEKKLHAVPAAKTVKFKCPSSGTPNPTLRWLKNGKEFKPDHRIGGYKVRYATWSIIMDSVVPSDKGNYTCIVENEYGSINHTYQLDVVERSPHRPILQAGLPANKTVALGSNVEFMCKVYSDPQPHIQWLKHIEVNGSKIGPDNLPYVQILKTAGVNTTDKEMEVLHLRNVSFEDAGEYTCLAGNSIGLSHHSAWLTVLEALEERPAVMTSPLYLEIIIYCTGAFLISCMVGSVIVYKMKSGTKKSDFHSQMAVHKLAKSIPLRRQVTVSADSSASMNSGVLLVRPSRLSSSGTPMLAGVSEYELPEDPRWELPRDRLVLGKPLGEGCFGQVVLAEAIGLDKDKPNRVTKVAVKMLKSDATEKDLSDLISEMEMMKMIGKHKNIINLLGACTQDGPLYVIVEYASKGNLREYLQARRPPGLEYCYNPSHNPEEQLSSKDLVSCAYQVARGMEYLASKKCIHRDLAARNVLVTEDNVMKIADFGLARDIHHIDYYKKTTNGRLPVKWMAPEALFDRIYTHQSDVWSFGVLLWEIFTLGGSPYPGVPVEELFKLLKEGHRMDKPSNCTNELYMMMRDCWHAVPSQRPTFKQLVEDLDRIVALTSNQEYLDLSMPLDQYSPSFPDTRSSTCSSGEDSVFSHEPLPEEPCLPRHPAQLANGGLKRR
# experiment: TR-FRET assay with FGFR1 kinase
# Format: biochemical
# cond: compound at 1000 nM, 13 μM ATP
inhibition at 1 µM: recorded values

{"columns": ["smiles repr", "inhibition at 1 µM / %"],
 "data": [
  ["CCn1cc(-c2ccc3c(c2)ncn3-c2cc(-c3ccc(F)cc3F)cc(NS(=O)(=O)C3CC3)n2)nn1", 99],
  ["CC(C)S(=O)(=O)Nc1cc(-c2ccccc2F)cc(-n2cnc3cc(-c4cnn(C)c4)ccc32)n1", 97],
  ["Cn1cc(-c2ccc3c(c2)ncn3-c2cc(-c3ccc(F)cc3F)cc(NS(C)(=O)=O)n2)cn1", 98],
  ["Cn1cc(-c2ccc3c(c2)ncn3-c2cc(-c3ccc(F)cc3F)cc(NS(=O)(=O)C3CC3)n2)cn1", 99],
  ["CC(C)S(=O)(=O)Nc1cc(-c2ccc(F)cc2)cc(-n2cnc3cc(-c4cnn(C)c4)ccc32)n1", 96],
  ["O=S(=O)(Nc1cc(-c2ccc(F)cc2F)cc(-n2cnc3cc(-c4cnn(CCN5CCOCC5)c4)ccc32)n1)C1CC1", 99],
  ["Cn1cc(-c2ccc3c(c2)ncn3-c2cc(-c3ncc(F)cc3F)cc(NS(=O)(=O)C3CC3)n2)cn1", 97]
]}

====

inhibition at 1 µM: recorded values
# experimental target: FGFR1 kinase (Homo sapiens, UniProt P11362)
# Construct: purchased Upstate, USA
# experiment: TR-FRET assay with FGFR1 kinase
# Type: biochemical
# cond: compound at 1000 nM, 13 μM ATP
measurement name: inhibition at 1 µM (%)

{"columns": ["smiles repr", "experimental target", "measurement name", "reported result"],
 "data": [
  ["Cn1cc(-c2ccc3c(c2)ncn3-c2cc(-c3ccccc3F)nc(NS(=O)(=O)C3CC3)n2)cn1", "FGFR1 kinase (Homo sapiens, UniProt P11362)", "inhibition at 1 µM", 97],
  ["O=S(=O)(Nc1cc(-c2ccc(F)cc2F)cc(-n2cnc3cc(-n4ccnc4)ccc32)n1)C1CC1", "FGFR1 kinase (Homo sapiens, UniProt P11362)", "inhibition at 1 µM", 99],
  ["Cn1cnc(-c2ccc3c(c2)ncn3-c2cc(-c3ccc(F)cc3F)cc(NS(=O)(=O)C3CC3)n2)c1", "FGFR1 kinase (Homo sapiens, UniProt P11362)", "inhibition at 1 µM", 99]
]}

====

Dear all, this message contains IC50 results, target or system FGFR1 kinase (Homo sapiens).
measurement name: IC50

{"columns": ["compound", "experimental target", "reported result"],
 "data": [
  ["CC(=O)Nc1cc(-c2ncccc2F)cc(-n2cnc3cc(-c4cnn(C)c4)ccc32)n1", "FGFR1 kinase (Homo sapiens)", "28.5 nM"],
  ["CCn1cc(-c2ccc3c(c2)ncn3-c2cc(-c3ccc(F)cc3F)cc(NS(=O)(=O)C3CC3)n2)nn1", "FGFR1 kinase (Homo sapiens)", "2 nM"],
  ["Cn1cc(-c2ccc3c(c2)ncn3-c2cc(-c3ccc(F)cc3)cc(NS(=O)(=O)C3CC3)n2)cn1", "FGFR1 kinase (Homo sapiens)", "14.4 nM"],
  ["CC(C)S(=O)(=O)Nc1cc(-c2ccccc2F)cc(-n2cnc3cc(-c4cnn(C)c4)ccc32)n1 [Example 12]", "FGFR1 kinase (Homo sapiens)", "1.5 nM"]
]}

====

# experimental target: FGFR1 kinase (Homo sapiens, UniProt P11362)
# Construct: purchased Upstate, USA
# experiment: TR-FRET assay with FGFR1 kinase
# Format: biochemical
# cond: compound at 1000 nM, 13 μM ATP
inhibition at 1 µM: recorded values

{"columns": ["smiles repr", "inhibition at 1 µM"],
 "data": [
  ["O=S(=O)(Nc1cc(-c2ccc(F)cc2F)cc(-n2cnc3cc(-n4cccn4)ccc32)n1)C1CC1", "97%"],
  ["Cn1cc(-c2ccc3c(c2)ncn3-c2cc(-c3ccccc3Cl)cc(NS(=O)(=O)C3CC3)n2)cn1", "97%"],
  ["CCS(=O)(=O)Nc1cc(-c2ccc(F)cc2F)cc(-n2cnc3cc(-c4cnn(C)c4)ccc32)n1", "99%"],
  ["Cn1cc(-c2ccc3c(c2)ncn3-c2cc(NS(=O)(=O)C3CC3)nc(-c3ccc(F)cc3F)c2)cn1", "94%"],
  ["Cn1cc(-c2ccc3c(c2)ncn3-c2cc(-c3ccccc3F)cc(NS(=O)(=O)C3CC3)n2)cn1", "99%"],
  ["CC(=O)Nc1cc(-c2ncccc2F)cc(-n2cnc3cc(-c4cnn(C)c4)ccc32)n1", "96%"],
  ["CCS(=O)(=O)Nc1cc(-c2ccccc2F)cc(-n2cnc3cc(-c4cnn(C)c4)ccc32)n1", "98%"],
  ["CC(=O)Nc1nc(-c2ccc(F)cc2F)cc(-n2cnc3cc(-c4cnn(C)c4)ccc32)n1", "87%"]
]}
